Tested on: ATP;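 also: ATP exposure 15 min at 22 °C before imaging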
assay.overview: switch fluorescence ratio, 500 uM ATP over buffer (Cy3 cluster intensity, sum of 5 cycles each) (fold (ratio)); higher = stronger signal-on switching upon ATP binding; sequences stand for … in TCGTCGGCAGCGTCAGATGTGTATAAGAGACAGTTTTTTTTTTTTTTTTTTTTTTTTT…TC
setup.conditions: aptamer strand: ATP DNA aptamer (quencher-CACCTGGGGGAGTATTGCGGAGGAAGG + anchor), 100 nM annealed; ATP concentration: 500 uM
quantity: switch fluorescence ratio
Give bare numbers.

Examples with their reported switch fluorescence ratio follow.
> print(dat)
    primary.sequence  observed.value
 1        AGTGCCGGGA            1.04
 2        GCAGTGCCTA           0.993
 3        ATGTTATTGG           0.967
 4        ACCATTTGTC            1.06
 5        CTTAGGGGTG           0.973
 6        TTGATACAGG            1.29
 7        GGGGGGTTTG               1
 8        GGGGTATGGG           0.985
 9        GGTACACAGC            1.02
10        AAAACTTTAC            1.29

// each sequence listed below needs its switch fluorescence ratio
1. GCTGAAAAGA
2. TGGGAGGTGT
3. TTTGGGATTA
4. AATCATTCCG

## Result
1. 0.97
2. 1.04
3. 0.983
4. 1.07

// each sequence listed below needs its switch fluorescence ratio
1. CTGCTCCGAT
2. TTGTGGCGGA
3. ATCGGTCATG
4. GCGTCTATGA
5. TTTTGTTATG
6. GAGTGAGACT
7. CAGGGGGTAT
8. ACATCCAACG

## Result
[1.21, 1.02, 0.993, 1, 0.99, 1.02, 0.997, 1.12]

// each sequence listed below needs its switch fluorescence ratio
1. AGGGGATTTT
2. CGAGACGGGG
3. ACTGATTGGC
4. TACAGGTGTG
5. ATTAGAATGG
6. TTTTTTAGCA

## Result
1: 1.04; 2: 0.959; 3: 1.18; 4: 1.24; 5: 1; 6: 1.02

Values were extracted from the supplement of paper PMC10126150.
